Experiment: Single escalating dose IV infusion pharmacokinetics in healthy volunteers (noncompartmental)
Assay type: in vivo, human
Conditions: both sexes, human, plasma, iv, 24 mg/m2, Cohort 3, 24 mg/m^2 IV; r6-8=Subjects 1-3,r10=Mean,r12=Min,r13=Median,r14=Max,r16=Geometric Mean; read-out: t½ (converted)
Quantity: half-life (h)

1) CN1CCN(c2ccc(Nc3ncc4cc5n(c4n3)C3(CCCCC3)CNC5=O)nc2)CC1 [Compound 1]
9.88

====

Test: 14-day oral gavage toxicokinetic study in rats
Format: in vivo
Settings: female, rat, plasma, po, 5 mg/kg, Individual Compound 1 Plasma Concentration, rats, daily oral 5 mg/kg, Day 1, Female, 24 h
Quantity: concentration at 24 h (ng/mL)

1) CN1CCN(c2ccc(Nc3ncc4cc5n(c4n3)C3(CCCCC3)CNC5=O)nc2)CC1
23.2

====

Assay: Topotecan PK following Compound 1 infusion
Type: in vivo, human
Conditions: human, plasma, intravenous, Topotecan 1.25 mg/m^2 (Cohort 2) with Compound 1 200 mg/m^2, Day 1, Mean; read-out: Cmax
Quantity: Cmax (ng/mL)

1. CC[C@@]1(O)C(=O)OCc2c1cc1n(c2=O)Cc2cc3c(CN(C)C)c(O)ccc3nc2-1.Cl
63.7

====

Test: Topotecan PK following Compound 1 infusion
Assay type: in vivo, human
Details: human, plasma, intravenous, topotecan 0.75 mg/m^2 (Cohort 3) after Compound 1 200 mg/m^2; Day 1; mean; read-out: Cmax averaged
Quantity: Cmax (µg/mL)

1) CC[C@@]1(O)C(=O)OCc2c1cc1n(c2=O)Cc2cc3c(CN(C)C)c(O)ccc3nc2-1.Cl [topotecan]
0.0273

====

Test: 14-day oral gavage toxicokinetic study in rats
Format: in vivo
Settings: male, rat, plasma, po, 2 mg/kg, oral 2 mg/kg, Study Day 14, Male
Quantity: AUC(0-t) (µg·h/mL)

1. CN1CCN(c2ccc(Nc3ncc4cc5n(c4n3)C3(CCCCC3)CNC5=O)nc2)CC1
1.36

====

Experiment: Single escalating dose IV infusion pharmacokinetics in healthy volunteers (noncompartmental)
Format: in vivo, human
Settings: both sexes, human, plasma, iv, 6 mg/m2, Cohort 1, 6 mg/m^2 IV; r6-8=Subjects 1-3,r10=Mean,r12=Min,r13=Median,r14=Max,r16=Geometric Mean; read-out: Cmax
Procedure: Forty-five subjects have enrolled in the study. Analysis of plasma concentration versus time data for calculation of standard pharmacokinetic (PK) parameters following intravenous infusion administration was conducted using Phoenix WinNonlin version 6.3 using a nominal infusion duration and scheduled blood sampling times. Random subject numbers were assigned by the bioanalytical laboratory to retain the blind. […]
Quantity: Cmax

1) CN1CCN(c2ccc(Nc3ncc4cc5n(c4n3)C3(CCCCC3)CNC5=O)nc2)CC1 [Compound 1]
50.9 ng/mL

====

Experiment: Compound 1 PK dosed Days 1-5 with topotecan
Type: in vivo, human
Settings: human, plasma, intravenous, Cohort 3 (Topotecan 0.75 mg/m^2); Compound 1 200 mg/m^2; Day 1; mean; read-out: Half-lives averaged (converted)
Quantity: half-life (min)

1. CN1CCN(c2ccc(Nc3ncc4cc5n(c4n3)C3(CCCCC3)CNC5=O)nc2)CC1
444

====

Test: 14-day oral gavage toxicokinetic study in rats
Type: in vivo
Settings: female, rat, plasma, po, 15 mg/kg, Mean Compound 1 Plasma Concentration, rats, oral 15 mg/kg, Day 1, 24 h, Female
Quantity: concentration at 24 h (ng/mL)

1. CN1CCN(c2ccc(Nc3ncc4cc5n(c4n3)C3(CCCCC3)CNC5=O)nc2)CC1 [Compound 1]
84.5

====

Test: 14-day oral gavage toxicokinetic study in rats
Format: in vivo
Settings: male, rat, plasma, po, 2 mg/kg, oral 2 mg/kg, Study Day 1, Male
Quantity: AUC(0-t) (ng·h/mL)

1. CN1CCN(c2ccc(Nc3ncc4cc5n(c4n3)C3(CCCCC3)CNC5=O)nc2)CC1 [Compound 1]
1390

====

Assay: 14-day oral gavage toxicokinetic study in rats
Format: in vivo
Settings: male, rat, plasma, po, 2 mg/kg, Mean Compound 1 Plasma Concentration, rats, oral 2 mg/kg, Day 1, 12 h, Male
Quantity: concentration at 12 h (ng/mL)

1. CN1CCN(c2ccc(Nc3ncc4cc5n(c4n3)C3(CCCCC3)CNC5=O)nc2)CC1 [Compound 1]
53.7

====

Assay: 14-day oral gavage toxicokinetic study in rats
Format: in vivo
Details: both sexes, rat, plasma, po, 30 mg/kg, oral 30 mg/kg, Study Day 1, Overall
Quantity: Cmax (ng/mL)

1. CN1CCN(c2ccc(Nc3ncc4cc5n(c4n3)C3(CCCCC3)CNC5=O)nc2)CC1 [Compound 1]
2380

====

Assay: 14-day oral gavage toxicokinetic study in rats
Format: in vivo
Conditions: male, rat, plasma, po, 5 mg/kg, Individual Compound 1 Plasma Concentration, rats, daily oral 5 mg/kg, Day 14, Male, 12 h
Quantity: concentration at 12 h (ng/mL)

1. CN1CCN(c2ccc(Nc3ncc4cc5n(c4n3)C3(CCCCC3)CNC5=O)nc2)CC1
169

====

Assay: 14-day oral gavage toxicokinetic study in rats
Assay type: in vivo
Conditions: male, rat, plasma, po, 30 mg/kg, Mean Compound 1 Plasma Concentration, rats, oral 30 mg/kg, Day 1, 0.5 h, Male
Quantity: concentration at 0.5 h (ng/mL)

1) CN1CCN(c2ccc(Nc3ncc4cc5n(c4n3)C3(CCCCC3)CNC5=O)nc2)CC1
1420

====

Assay: Compound 1 PK dosed Days 1-5 with topotecan
Format: in vivo, human
Details: human, plasma, intravenous, Cohort 3 (Topotecan 0.75 mg/m^2); Compound 1 200 mg/m^2; Day 4; mean; read-out: average Cmax
Quantity: Cmax (ng/mL)

1) CN1CCN(c2ccc(Nc3ncc4cc5n(c4n3)C3(CCCCC3)CNC5=O)nc2)CC1 [Compound 1]
1330

====

Test: 14-day oral gavage toxicokinetic study in rats
Type: in vivo
Conditions: both, rat, plasma, po, 15 mg/kg, Mean Compound 1 Plasma Concentration, rats, oral 15 mg/kg, Day 14, […], Overall
Quantity: concentration at […] (ng/mL)

1) CN1CCN(c2ccc(Nc3ncc4cc5n(c4n3)C3(CCCCC3)CNC5=O)nc2)CC1 [Compound 1]
119

====

Assay: 14-day oral gavage toxicokinetic study in rats
Format: in vivo
Conditions: female, rat, plasma, po, 30 mg/kg, Individual Compound 1 Plasma Concentration, rats, daily oral 30 mg/kg, Day 14, Female, 24 h
Quantity: concentration at 24 h

1. CN1CCN(c2ccc(Nc3ncc4cc5n(c4n3)C3(CCCCC3)CNC5=O)nc2)CC1
280 ng/mL

====

Assay: 14-day oral gavage toxicokinetic study in rats
Assay type: in vivo
Conditions: both sexes, rat, plasma, po, 2 mg/kg, oral 2 mg/kg, Study Day 14, Overall
Quantity: Tmax (h)

1. CN1CCN(c2ccc(Nc3ncc4cc5n(c4n3)C3(CCCCC3)CNC5=O)nc2)CC1 [Compound 1]
2

====

Experiment: Single escalating dose IV infusion pharmacokinetics in healthy volunteers (noncompartmental)
Assay type: in vivo, human
Details: both sexes, human, plasma, iv, 12 mg/m2, Cohort 2, 12 mg/m^2 IV; range over subjects; read-out: Half-lives range
Quantity: half-life

1. CN1CCN(c2ccc(Nc3ncc4cc5n(c4n3)C3(CCCCC3)CNC5=O)nc2)CC1
7.56 to 8.89 h

====

Assay: 14-day oral gavage toxicokinetic study in rats
Type: in vivo
Conditions: both sexes, rat, plasma, po, 2 mg/kg, oral 2 mg/kg, Study Day 14, Overall
Quantity: Cmax (ng/mL)

1) CN1CCN(c2ccc(Nc3ncc4cc5n(c4n3)C3(CCCCC3)CNC5=O)nc2)CC1
142

====

Assay: 14-day oral gavage toxicokinetic study in rats
Format: in vivo
Settings: female, rat, plasma, po, 2 mg/kg, Mean Compound 1 Plasma Concentration, rats, oral 2 mg/kg, Day 14, […], Female
Quantity: concentration at […] (ng/mL)

1. CN1CCN(c2ccc(Nc3ncc4cc5n(c4n3)C3(CCCCC3)CNC5=O)nc2)CC1
10

====

Test: Compound 1 PK dosed Days 1-3 with etoposide and carboplatin
Format: in vivo, human
Settings: human, plasma, intravenous, 200 mg/m2, 200 mg/m^2 with etoposide and carboplatin; Day 1; range; read-out: Half-lives range
Quantity: half-life

1. CN1CCN(c2ccc(Nc3ncc4cc5n(c4n3)C3(CCCCC3)CNC5=O)nc2)CC1
6.29 to 10.6 h

====

Experiment: Single escalating dose IV infusion pharmacokinetics in healthy volunteers (noncompartmental)
Format: in vivo, human
Settings: both, human, plasma, intravenous, […]^2, Cohort 6 + 7, […]^2, N = 18; min-max; read-out: t1/2 (converted)
Quantity: half-life

1) CN1CCN(c2ccc(Nc3ncc4cc5n(c4n3)C3(CCCCC3)CNC5=O)nc2)CC1 [Compound 1]
714 to 1040 min

====

Experiment: 14-day oral gavage toxicokinetic study in rats
Assay type: in vivo
Conditions: female, rat, plasma, po, 2 mg/kg, oral 2 mg/kg, Study Day 14, Female
Quantity: AUC(0-inf) (ng·h/mL)

1. CN1CCN(c2ccc(Nc3ncc4cc5n(c4n3)C3(CCCCC3)CNC5=O)nc2)CC1 [Compound 1]
1850
